# System under test: T1, human LTBR ECD (S28-M227) N- and C-terminally extended-Fc-fusion wt kih HRYF-Avi-His biotinylated (P1AE7979) (human, UniProt P0DOX5 223-449 = IgG part, biotinylated avi tag)
# T1 construct: also called hu LTBR
# Measurement description: SPR, IgG captured;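 note: rate constants and KD obtained by fitting double-referenced sensorgrams to a 1:1 Langmuir binding model, with dissociation followed for 600 s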
Endpoint label: Kd

[[record]]
binder = "P1AE9457 (antibody, human IgG1, kappa, L234A L235A, V domains shown, human IgG1 PG LALA; from transgenic rabbit immunization; also called LTBR (9457)) VH: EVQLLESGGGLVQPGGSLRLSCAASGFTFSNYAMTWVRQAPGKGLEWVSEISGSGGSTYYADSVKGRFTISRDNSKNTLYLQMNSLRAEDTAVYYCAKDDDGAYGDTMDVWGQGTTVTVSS VL: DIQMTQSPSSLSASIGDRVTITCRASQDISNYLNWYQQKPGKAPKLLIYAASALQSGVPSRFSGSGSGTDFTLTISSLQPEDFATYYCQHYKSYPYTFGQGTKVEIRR"
measured_value = "9 nM"

